Kindly state BUN for each of the entries shown.
species: Rattus norvegicus; assay: Open TG-GATES - Regimen: Single; assay type: toxicity, organism-based, Sprague-Dawley; design: regimen Single, gender Male, age 6 weeks; settings: in vivo, po, 0 mg/kg, 3 h, tissue Plasma, route gavage, dose level Control
Give bare numbers, in mg/dL.

Example entries and their recorded answers appear below.
1. CC(=O)Nc1nnc(S(N)(=O)=O)s1 [ACETAZOLAMIDE] :: 12
2. C#C[C@]1(O)CC[C@H]2[C@@H]3CCC4=Cc5oncc5C[C@]4(C)[C@H]3CC[C@@]21C [DANAZOL] :: 14.2
3. CN1C(C(=O)Nc2ccccn2)=C(O)c2sc(Cl)cc2S1(=O)=O [LORNOXICAM] :: 11.8
4. COc1cc([C@@H]2c3cc4c(cc3[C@@H](O[C@@H]3O[C@@H]5CO[C@@H](C)O[C@H]5[C@H](O)[C@H]3O)[C@H]3COC(=O)[C@H]23)OCO4)cc(OC)c1O [ETOPOSIDE] :: 11.8
5. CC(CN1c2ccccc2Sc2ccccc21)N(C)C (stereo not given) [PROMETHAZINE] :: 12.8
6. C1CCC(C(CC2CCCCN2)C2CCCCC2)CC1 (stereo not given) [PERHEXILINE] :: 14.8

I'm hoping you can list BUN for every compound here, please.
1. Cc1cccc(Nc2ccccc2C(=O)O)c1C [MEFENAMIC ACID]
2. CCOC(=O)[C@H](CCc1ccccc1)N[C@@H](C)C(=O)N1CCC[C@H]1C(=O)O
3. Clc1c(Cl)c(Cl)c(Cl)c(Cl)c1Cl [PERCHLOROBENZENE]
4. CN(C)[C@@H]1C(O)=C(C(N)=O)C(=O)[C@@]2(O)C(O)=C3C(=O)c4c(O)cccc4[C@@](C)(O)[C@H]3C[C@@H]12 [TETRACYCLINE]

Result:
10.8
13.8
11.4
12.6

---

organism: Rattus norvegicus; assay: Open TG-GATES - Regimen: Single; assay type: toxicity, organism-based, Sprague-Dawley; parameters: regimen Single, gender Male, age 6 weeks; settings: in vivo, po, 0 mg/kg, 3 h, tissue Plasma, route gavage, dose level Control
Kindly state TG for each of the entries shown.
Answers are plain numbers, in mg/dL.

Example entries and their recorded answers appear below.
1. CN(C)[C@@H]1C(O)=C(C(N)=O)C(=O)[C@@]2(O)C(O)=C3C(=O)c4c(O)cccc4[C@@](C)(O)[C@H]3C[C@@H]12 [TETRACYCLINE] :: 42.4
2. CCOC(=O)[C@H](CCc1ccccc1)N[C@@H](C)C(=O)N1CCC[C@H]1C(=O)O :: 70.8
3. C#C[C@]1(O)CC[C@H]2[C@@H]3CCC4=Cc5oncc5C[C@]4(C)[C@H]3CC[C@@]21C [DANAZOL] :: 70.8
4. Clc1c(Cl)c(Cl)c(Cl)c(Cl)c1Cl [PERCHLOROBENZENE] :: 103.4
5. Cc1cccc(Nc2ccccc2C(=O)O)c1C [MEFENAMIC ACID] :: 49
6. COc1cc([C@@H]2c3cc4c(cc3[C@@H](O[C@@H]3O[C@@H]5CO[C@@H](C)O[C@H]5[C@H](O)[C@H]3O)[C@H]3COC(=O)[C@H]23)OCO4)cc(OC)c1O [ETOPOSIDE] :: 43
7. CN1C(C(=O)Nc2ccccn2)=C(O)c2sc(Cl)cc2S1(=O)=O [LORNOXICAM] :: 80
8. CC(=O)Nc1nnc(S(N)(=O)=O)s1 [ACETAZOLAMIDE] :: 59.8

I'm hoping you can list TG for every molecule here, please.
1. C1CCC(C(CC2CCCCN2)C2CCCCC2)CC1 (stereo not given) [PERHEXILINE]
2. CC(CN1c2ccccc2Sc2ccccc21)N(C)C (stereo not given) [PROMETHAZINE]

Result:
[63.4, 64.2]

---

organism: Rattus norvegicus; assay: Open TG-GATES - Regimen: Daily Repeat; assay type: toxicity, organism-based, Sprague-Dawley; set-up: regimen Daily Repeat, gender Male, age 6 weeks; settings: in vivo, po, 0 mg/kg, 72 h, tissue Plasma, route gavage, dose level Control, time 3 day
Kindly state ALT for each of the entries shown.
One number for each entry, in IU/L.

Example entries and their recorded answers appear below.
1. CC(CN1c2ccccc2Sc2ccccc21)N(C)C (centres undefined) [PROMETHAZINE] :: 40
2. CN(C)[C@@H]1C(O)=C(C(N)=O)C(=O)[C@@]2(O)C(O)=C3C(=O)c4c(O)cccc4[C@@](C)(O)[C@H]3C[C@@H]12 [TETRACYCLINE] :: 43.6
3. C1CCC(C(CC2CCCCN2)C2CCCCC2)CC1 (centres undefined) [PERHEXILINE] :: 45.8
4. CN1C(C(=O)Nc2ccccn2)=C(O)c2sc(Cl)cc2S1(=O)=O [LORNOXICAM] :: 46.2
5. CCOC(=O)[C@H](CCc1ccccc1)N[C@@H](C)C(=O)N1CCC[C@H]1C(=O)O :: 38.6

I'm hoping you can list ALT for every molecule here, please.
1. Cc1cccc(Nc2ccccc2C(=O)O)c1C [MEFENAMIC ACID]
2. CC(=O)Nc1nnc(S(N)(=O)=O)s1 [ACETAZOLAMIDE]
3. C#C[C@]1(O)CC[C@H]2[C@@H]3CCC4=Cc5oncc5C[C@]4(C)[C@H]3CC[C@@]21C [DANAZOL]

Result:
1: 35.4; 2: 45.6; 3: 45.8

Request: Return reported ALT. Input molecule: Clc1c(Cl)c(Cl)c(Cl)c(Cl)c1Cl [PERCHLOROBENZENE]
Result: 40.2

---

Kindly state Fbg for each of the entries shown.
organism: Rattus norvegicus; test: Open TG-GATES - Regimen: Daily Repeat; format: toxicity, organism-based, Sprague-Dawley; set-up: regimen Daily Repeat, gender Male, age 6 weeks; details: in vivo, po, 0 mg/kg, […], tissue Blood, route gavage, dose level Control, time 14 day
Returns: string containing the number followed by the unit.

Example entries and their recorded answers appear below.
1) CC(=O)Nc1nnc(S(N)(=O)=O)s1 [ACETAZOLAMIDE] :: 297.2 mg/dL
2) C1CCC(C(CC2CCCCN2)C2CCCCC2)CC1 (stereo not given) :: 294 mg/dL
3) Cc1cccc(Nc2ccccc2C(=O)O)c1C :: 228.8 mg/dL
4) CCOC(=O)[C@H](CCc1ccccc1)N[C@@H](C)C(=O)N1CCC[C@H]1C(=O)O :: 232.8 mg/dL

I'm hoping you can list Fbg for every compound here, please.
1. CC(CN1c2ccccc2Sc2ccccc21)N(C)C (stereo not given)
2. C#C[C@]1(O)CC[C@H]2[C@@H]3CCC4=Cc5oncc5C[C@]4(C)[C@H]3CC[C@@]21C
3. O=C(O)Cc1ccccc1Nc1c(Cl)cccc1Cl
4. Clc1c(Cl)c(Cl)c(Cl)c(Cl)c1Cl
5. CN1C(C(=O)Nc2ccccn2)=C(O)c2sc(Cl)cc2S1(=O)=O

Result:
317.8 mg/dL
325.6 mg/dL
221.6 mg/dL
237.6 mg/dL
221.2 mg/dL

Request: Return reported Fbg. Input compound: CN(C)[C@@H]1C(O)=C(C(N)=O)C(=O)[C@@]2(O)C(O)=C3C(=O)c4c(O)cccc4[C@@](C)(O)[C@H]3C[C@@H]12
Result: 238.4 mg/dL

---

species: Rattus norvegicus; assay: Open TG-GATES - Regimen: Daily Repeat; assay type: toxicity, organism-based, Sprague-Dawley; design: regimen Daily Repeat, gender Male, age 6 weeks; conditions: in vivo, po, 0 mg/kg, […], tissue Kidney, route gavage, dose level Control, time 28 day
quantity: KIDNEY_L (g)
Answers are plain numbers, in g.

1. C#C[C@]1(O)CC[C@H]2[C@@H]3CCC4=Cc5oncc5C[C@]4(C)[C@H]3CC[C@@]21C :: 1.4
2. Cc1cccc(Nc2ccccc2C(=O)O)c1C :: 1.4
3. CCOC(=O)[C@H](CCc1ccccc1)N[C@@H](C)C(=O)N1CCC[C@H]1C(=O)O :: 1.4
4. CC(=O)Nc1nnc(S(N)(=O)=O)s1 [ACETAZOLAMIDE] :: 1.3
5. CN(C)[C@@H]1C(O)=C(C(N)=O)C(=O)[C@@]2(O)C(O)=C3C(=O)c4c(O)cccc4[C@@](C)(O)[C@H]3C[C@@H]12 :: 1.3
6. O=C(O)Cc1ccccc1Nc1c(Cl)cccc1Cl :: 1.4

I'm hoping you can list KIDNEY_L for every compound here, please.
1. CN1C(C(=O)Nc2ccccn2)=C(O)c2sc(Cl)cc2S1(=O)=O
2. C1CCC(C(CC2CCCCN2)C2CCCCC2)CC1 (stereo not given)
3. CC(CN1c2ccccc2Sc2ccccc21)N(C)C (stereo not given)

Result:
1: 1.4; 2: 1.2; 3: 1.4

Request: Return reported KIDNEY_L. Input compound: Clc1c(Cl)c(Cl)c(Cl)c(Cl)c1Cl
Result: 1.4
